biological target: T1, human FcRn/b2M (human, UniProt P61769 21-119, biotinylated); assay: SPR pH 6.0;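 note: surface plasmon resonance kinetics at 25 °C, diluted periplasmic extracts injected over immobilized ligand surfaces, 120 s association then 600–3600 s dissociation, running buffer containing 150 mM NaCl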
T1 construct: bought recombinant biotinylated protein (ACRO FCM-H82W4 or Immunitrack ITF01); also called hFcRn; hFcRn/hb2M
T1 sequence (chain, as listed by the source limits assumed, chain 1 of 2): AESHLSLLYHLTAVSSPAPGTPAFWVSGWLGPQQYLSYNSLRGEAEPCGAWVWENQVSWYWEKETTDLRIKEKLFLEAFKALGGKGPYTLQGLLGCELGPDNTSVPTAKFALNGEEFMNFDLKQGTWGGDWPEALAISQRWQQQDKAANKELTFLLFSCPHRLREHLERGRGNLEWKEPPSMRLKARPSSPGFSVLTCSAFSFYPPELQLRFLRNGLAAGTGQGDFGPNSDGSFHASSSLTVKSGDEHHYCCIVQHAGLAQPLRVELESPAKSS
T1 sequence (P61769 21-119 limits assumed, chain 2 of 2): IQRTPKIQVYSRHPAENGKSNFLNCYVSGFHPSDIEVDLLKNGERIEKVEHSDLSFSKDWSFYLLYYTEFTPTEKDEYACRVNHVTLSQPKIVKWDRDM
MEASUREMENT TYPE: koff (s⁻¹)
Respond numerically; units are s⁻¹ and should not be typed.

I'd like to know its koff. The binder in question is T0263018B11 S100A (VHH, name in Kabat numbering, FLAG3-His6 tagged) VHH: EVQLVESGGGVVQPGGSLRLSCAASGFTFSSYAMYWVRQAPGKGLEWVSAISSGGGSTDYADSVKGRFTISRDNSKNTLYLQMNSLRPEDTALYYCAADTLYTALTWYSYWGQGTLVTVSS
0.00025

Do the same for T0263018B11 S30N (VHH, name in Kabat numbering, FLAG3-His6 tagged) VHH: EVQLVESGGGVVQPGGSLRLSCAASGFTFNSYAMYWVRQAPGKGLEWVSAISSGGGSTDYADSVKGRFTISRDNSKNTLYLQMNSLRPEDTALYYCAADTLYTSLTWYSYWGQGTLVTVSS please
0.0019
